Biological target: Hypoxia-inducible factor 1-alpha (Homo sapiens)
Sequence (Q16665 whole entry): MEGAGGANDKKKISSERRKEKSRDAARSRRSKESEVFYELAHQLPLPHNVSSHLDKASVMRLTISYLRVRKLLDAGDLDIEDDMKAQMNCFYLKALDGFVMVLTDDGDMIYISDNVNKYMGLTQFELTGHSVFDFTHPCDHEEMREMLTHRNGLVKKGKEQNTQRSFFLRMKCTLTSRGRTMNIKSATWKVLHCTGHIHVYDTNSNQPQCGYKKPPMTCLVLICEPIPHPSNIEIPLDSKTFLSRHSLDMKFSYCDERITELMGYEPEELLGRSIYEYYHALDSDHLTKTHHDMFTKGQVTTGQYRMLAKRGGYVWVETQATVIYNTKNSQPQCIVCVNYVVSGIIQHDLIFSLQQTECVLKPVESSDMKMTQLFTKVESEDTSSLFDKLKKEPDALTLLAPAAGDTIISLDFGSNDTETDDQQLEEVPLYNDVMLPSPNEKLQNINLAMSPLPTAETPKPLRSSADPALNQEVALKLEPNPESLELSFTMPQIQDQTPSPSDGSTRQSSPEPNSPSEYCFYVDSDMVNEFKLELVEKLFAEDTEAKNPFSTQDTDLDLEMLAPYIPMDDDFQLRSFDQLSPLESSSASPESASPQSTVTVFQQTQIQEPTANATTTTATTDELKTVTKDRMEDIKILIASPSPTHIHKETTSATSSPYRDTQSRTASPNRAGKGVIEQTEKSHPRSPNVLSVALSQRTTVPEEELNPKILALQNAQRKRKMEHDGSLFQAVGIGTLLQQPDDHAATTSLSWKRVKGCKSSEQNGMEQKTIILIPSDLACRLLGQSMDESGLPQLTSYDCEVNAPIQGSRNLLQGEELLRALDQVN
Assay: Inhibition of hypoxia-induced HIF1alpha transcriptional activity in human Hep3B cells co-transfected with luciferase reporter plasmid containing six copies of HREs and pRL-CMV vector assessed as reduction in luciferase activity incubated for 24 hrs under hypoxic condition by HRE-dependent dual luciferase reporter gene assay
Endpoint: IC50 (µM)
Give just the number in µM; leave the unit off.

Below: 6 compounds and their reported IC50.
| Smiles repr | Unit string | IC50 |
| --- | --- | --- |
| CC1(C)CCC[C@](C)([C@H]2CC[C@]3(C)[C@@H]2[C@H](O)C[C@@H]2[C@@]4(C)CC/C(=N\Nc5ccc(Cl)cc5)C(C)(C)[C@@H]4CC[C@]23C)O1 | µM | 26 |
| CC1(C)CCC[C@](C)([C@H]2CC[C@]3(C)[C@@H]2[C@H](O)C[C@@H]2[C@@]4(C)CC/C(=N\Nc5ccc(F)cc5F)C(C)(C)[C@@H]4CC[C@]23C)O1 | µM | 12.8 |
| Cc1cccc(N/N=C2\CC[C@]3(C)[C@H]4C[C@@H](O)[C@@H]5[C@@H]([C@@]6(C)CCCC(C)(C)O6)CC[C@@]5(C)[C@]4(C)CC[C@H]3C2(C)C)c1 | µM | 56.5 |
| CC1(C)CCC[C@](C)([C@H]2CC[C@]3(C)[C@@H]2[C@H](O)C[C@@H]2[C@@]4(C)CC/C(=N\Nc5ccc(F)cc5)C(C)(C)[C@@H]4CC[C@]23C)O1 | µM | 21.4 |
| CC1(C)CCC[C@](C)([C@H]2CC[C@]3(C)[C@@H]2[C@H](O)C[C@@H]2[C@@]4(C)CC/C(=N\Nc5ccc(Cl)cc5Cl)C(C)(C)[C@@H]4CC[C@]23C)O1 | µM | 3.7 |
| CC1(C)CCC[C@](C)([C@H]2CC[C@]3(C)[C@@H]2[C@H](O)C[C@@H]2[C@@]4(C)CC(=C\c5ccc(F)cc5)/C(=N\NC(=N)N)C(C)(C)[C@@H]4CC[C@]23C)O1 | µM | 4.8 |

Now look at this one.
Query: Read the entry `CC1(C)CCC[C@](C)([C@H]2CC[C@]3(C)[C@@H]2[C@H](O)C[C@@H]2[C@@]4(C)CC/C(=N\Nc5ccccc5F)C(C)(C)[C@@H]4CC[C@]23C)O1` and write its reported IC50.
Response: 10.1
